Target: acetylcholine muscarinic M1 receptor (Homo sapiens, UniProt P11229)
Construct: expressed in transfected cells; host or cells: CHOnfat (CHO cells, Geneticin-selected) expressing hM1
Sequence (P11229 whole entry): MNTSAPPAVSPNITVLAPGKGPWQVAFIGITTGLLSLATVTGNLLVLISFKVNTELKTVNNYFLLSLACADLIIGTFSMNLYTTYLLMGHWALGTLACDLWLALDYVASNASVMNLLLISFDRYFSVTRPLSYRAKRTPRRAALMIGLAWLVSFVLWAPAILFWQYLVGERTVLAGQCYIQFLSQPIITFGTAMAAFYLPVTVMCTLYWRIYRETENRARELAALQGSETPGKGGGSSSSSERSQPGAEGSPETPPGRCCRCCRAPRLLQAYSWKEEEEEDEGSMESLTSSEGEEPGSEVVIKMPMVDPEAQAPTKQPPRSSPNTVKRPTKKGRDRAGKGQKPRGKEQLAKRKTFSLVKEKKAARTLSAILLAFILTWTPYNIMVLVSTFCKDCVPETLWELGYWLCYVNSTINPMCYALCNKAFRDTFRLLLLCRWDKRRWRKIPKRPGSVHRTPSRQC
Test: muscarinic FLIPR assay: intracellular calcium in CHOnfat/hM1 cells with EC20 acetylcholine (positive allosteric modulation)
Type: cell-based
Details: column head 'H Pot.' of the untitled table after Table 1; no unit or method printed; read-out: H Pot.
metricName: EC50 (µM)
Give just the number in µM; leave the unit off.

Reported EC50, molecule CCN1CC=Cc2c(Cc3ccc(Cl)nc3)cc3c(=O)n([C@H]4CCCC[C@@H]4O)cnc3c21 : ____
0.263

* * *

Target: acetylcholine muscarinic M1 receptor (Homo sapiens, UniProt P11229)
Construct: expressed in transfected cells; host or cells: CHOnfat (CHO cells, Geneticin-selected) expressing hM1
Experiment: muscarinic FLIPR assay: intracellular calcium in CHOnfat/hM1 cells with EC20 acetylcholine (positive allosteric modulation)
Assay type: cell-based
Conditions: CHOnfat/hM1 cells, FLIPR Ca2+, 4 min preincubation, then EC20 acetylcholine (3 nM final); read-out: IP Value (inflection point)
Reported values of pEC50 for individual entries
Here pEC50 is given on a logarithmic scale as minus log10 of the concentration in mol/L.

| chemicalSmiles | pEC50 |
| --- | --- |
| CSc1ccc(Cc2cc3c(=O)n([C@H]4CCCC[C@@H]4O)cnc3c3c2C=CCN3C)cn1 | 8.38 |
| CN1CC=Cc2c(Cc3cccnc3)cc3c(=O)n([C@H]4CCCC[C@@H]4O)cnc3c21 | 7.68 |

If you can, please state the reported pEC50 value of CN1CC=Cc2c(Cc3ccc(-c4cnn(C)c4)nc3)cc3c(=O)n([C@H]4CCCC[C@@H]4O)cnc3c21 .
8.59

Query: pEC50; subject: COc1cc(Cc2cc3c(=O)n([C@H]4CCCC[C@@H]4O)cnc3c3c2C=CCN3C)ccn1
8.28

Item COc1ccc(Cc2cc3c(=O)n([C@H]4CCCC[C@@H]4O)cnc3c3c2C=CCN3C)cn1 has what recorded pEC50?
7.85

Suppose we examine the compound CN1CC=Cc2c(Cc3ccc(O)cc3)cc3c(=O)n([C@H]4CCCC[C@@H]4O)cnc3c21 ; what pEC50 value has been reported?
8.59

Please report the recorded pEC50 for CN1CC=Cc2c(Cc3ccc(Cl)nc3)cc3c(=O)n([C@H]4CCOC[C@@H]4O)cnc3c21 .
8.37

Give its pEC50 value. Item: CN1CC=Cc2c(Cc3ccc(Cl)nc3)cc3c(=O)n([C@H]4CCCC[C@@H]4O)cnc3c21
8.52

Hello, the source for this data is patent US9284312B2, in case you need it.
